EXPERIMENT_NOTES: DRUGMATRIX: Glutamate, Kainate radioligand binding (ligand: [3H] Kainic acid)
Type: cell membranes, Rattus norvegicus, Wistar, Brain, Membrane
REPORTED_CONDITIONS: Not Active = under 50% inhibition at 10 µM
MEASURE: Ki

COMPOUND: CC(C)(C)NC(=O)[C@H]1CC[C@H]2[C@@H]3CC[C@H]4NC(=O)C=C[C@]4(C)[C@H]3CC[C@]12C [FINASTERIDE]
Ki: Not Active
//
COMPOUND: CC(C)Oc1ccc2c(=O)c(-c3ccccc3)coc2c1 [IPRIFLAVONE]
Ki: Not Active
//
COMPOUND: O=C1Nc2ccc(Cl)cc2C(c2ccccc2Cl)=NC1O (stereo not given) [LORAZEPAM]
Ki: Not Active
//
COMPOUND: O=C(O)c1cccnc1Nc1cccc(C(F)(F)F)c1 [NIFLUMIC ACID]
Ki: Not Active

Shift focus to the following entry.
Using the record for O=C(Oc1ccccc1C(=O)O)c1ccccc1O [SALSALATE] , report its Ki.
Not Active

###

TESTED_SYSTEM: 3-hydroxy-3-methylglutaryl-coenzyme A reductase (Homo sapiens, UniProt P04035);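 further: enzyme inhibition assay of HMG-CoA reductase using radiolabeled [14C]HMG-CoA as substrate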; further: in other assays of this panel Not Active means under 50% inhibition at 10 µM
Sequence (P04035 whole entry): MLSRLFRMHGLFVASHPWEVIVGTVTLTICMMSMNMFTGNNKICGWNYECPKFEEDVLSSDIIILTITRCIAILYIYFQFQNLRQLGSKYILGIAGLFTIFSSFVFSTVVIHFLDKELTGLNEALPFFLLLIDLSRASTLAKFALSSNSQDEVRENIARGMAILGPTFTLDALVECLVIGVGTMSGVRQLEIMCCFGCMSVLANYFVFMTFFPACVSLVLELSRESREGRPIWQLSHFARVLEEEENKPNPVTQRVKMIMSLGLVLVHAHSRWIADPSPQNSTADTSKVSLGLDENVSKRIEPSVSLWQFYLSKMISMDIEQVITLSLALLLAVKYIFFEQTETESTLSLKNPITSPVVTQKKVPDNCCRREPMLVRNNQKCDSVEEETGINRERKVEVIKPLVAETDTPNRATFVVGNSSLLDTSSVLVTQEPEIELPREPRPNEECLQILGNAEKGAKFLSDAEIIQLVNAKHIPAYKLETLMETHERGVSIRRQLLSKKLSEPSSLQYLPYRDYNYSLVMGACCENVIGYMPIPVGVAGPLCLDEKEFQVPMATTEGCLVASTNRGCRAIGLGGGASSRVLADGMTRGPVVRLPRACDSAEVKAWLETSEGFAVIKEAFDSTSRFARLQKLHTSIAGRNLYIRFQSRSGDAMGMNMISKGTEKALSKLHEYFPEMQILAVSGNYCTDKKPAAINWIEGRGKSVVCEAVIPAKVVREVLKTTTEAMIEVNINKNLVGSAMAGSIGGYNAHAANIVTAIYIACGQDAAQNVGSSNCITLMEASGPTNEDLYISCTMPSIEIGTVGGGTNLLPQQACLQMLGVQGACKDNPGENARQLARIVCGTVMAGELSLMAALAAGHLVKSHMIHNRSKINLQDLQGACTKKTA
Set-up: species or system Escherichia coli
REPORTED_CONDITIONS: read-out: IC50
MEASURE: IC50 (µM)
Only the number, expressed in µM, is required.

Lab note: need IC50 for COc1cc(N)c(Cl)cc1C(=O)NC1CCN(CCCOc2ccc(F)cc2)CC1OC (stereo unspecified) [CISAPRIDE] on 3-hydroxy-3-methylglutaryl-coenzyme A reductase (Homo sapiens, UniProt P04035), anyone have it?
3.37

###

pKi overview
TESTED_SYSTEM: Muscarinic acetylcholine receptor M4 (Homo sapiens, UniProt P08173); further: in other assays of this panel Not Active means under 50% inhibition at 10 µM
Sequence (P08173 whole entry): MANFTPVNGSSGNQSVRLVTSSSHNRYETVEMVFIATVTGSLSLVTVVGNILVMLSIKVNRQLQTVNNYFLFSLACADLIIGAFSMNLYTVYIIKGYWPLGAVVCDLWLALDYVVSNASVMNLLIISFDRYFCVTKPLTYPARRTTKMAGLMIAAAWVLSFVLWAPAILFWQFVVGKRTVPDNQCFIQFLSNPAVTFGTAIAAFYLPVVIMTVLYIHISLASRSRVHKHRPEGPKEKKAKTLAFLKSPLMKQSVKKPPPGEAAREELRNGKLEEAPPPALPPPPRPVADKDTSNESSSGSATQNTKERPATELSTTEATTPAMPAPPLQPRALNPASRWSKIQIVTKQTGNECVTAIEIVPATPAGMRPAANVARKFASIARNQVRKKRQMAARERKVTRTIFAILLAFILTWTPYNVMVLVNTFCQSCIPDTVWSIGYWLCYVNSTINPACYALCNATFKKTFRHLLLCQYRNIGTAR
Type: cell membranes, CHO-K1, Membrane
REPORTED_CONDITIONS: read-out: Ki
Give only the number. pKi is defined as minus log10 of concentration in molar units.

Please review the following examples before continuing.
MOLECULE: CCN(CC)CCOc1ccc(/C(=C(/Cl)c2ccccc2)c2ccccc2)cc1
TESTED_SYSTEM: Muscarinic acetylcholine receptor M4 (Homo sapiens, UniProt P08173); further: in other assays of this panel Not Active means under 50% inhibition at 10 µM
ENDPOINT_VALUE: 6.64

MOLECULE: CN[C@H]1CC[C@@H](c2ccc(Cl)c(Cl)c2)c2ccccc21
TESTED_SYSTEM: Muscarinic acetylcholine receptor M4 (Homo sapiens, UniProt P08173); further: in other assays of this panel Not Active means under 50% inhibition at 10 µM
ENDPOINT_VALUE: 6.44

MOLECULE: CN(C)CC[C@@H](c1ccc(Cl)cc1)c1ccccn1
TESTED_SYSTEM: Muscarinic acetylcholine receptor M4 (Homo sapiens, UniProt P08173); further: in other assays of this panel Not Active means under 50% inhibition at 10 µM
ENDPOINT_VALUE: 6.56

Using the record for Clc1ccc(COC(Cn2ccnc2)c2ccc(Cl)cc2Cl)cc1 (stereo unspecified) , report its pKi.
6.53

Using the record for "OC(CCCN1CCCCC1)(c1ccccc1)c1ccccc1" , report its pKi.
7.42

Using the record for "Fc1ccc(C(c2ccc(F)cc2)N2CCN(C/C=C/c3ccccc3)CC2)cc1" , report its pKi.
6.10

###

TESTED_SYSTEM: Alpha-1B adrenergic receptor (Rattus norvegicus)
Sequence (P15823 whole entry): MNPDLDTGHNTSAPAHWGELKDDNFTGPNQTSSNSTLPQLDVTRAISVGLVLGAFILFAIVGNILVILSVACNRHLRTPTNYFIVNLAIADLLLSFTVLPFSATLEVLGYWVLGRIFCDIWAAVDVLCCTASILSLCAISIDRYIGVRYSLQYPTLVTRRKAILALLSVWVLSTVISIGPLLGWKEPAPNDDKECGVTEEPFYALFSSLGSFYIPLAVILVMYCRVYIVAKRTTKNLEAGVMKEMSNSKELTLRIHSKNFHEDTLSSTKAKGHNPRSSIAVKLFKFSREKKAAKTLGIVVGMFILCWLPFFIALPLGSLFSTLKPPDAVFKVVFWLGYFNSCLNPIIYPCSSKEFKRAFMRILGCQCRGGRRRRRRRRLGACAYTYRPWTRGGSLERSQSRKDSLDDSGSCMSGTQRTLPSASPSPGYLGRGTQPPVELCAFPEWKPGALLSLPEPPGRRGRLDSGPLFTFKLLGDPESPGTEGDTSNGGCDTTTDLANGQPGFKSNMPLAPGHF
EXPERIMENT_NOTES: DRUGMATRIX: Alpha-1B adrenergic receptor radioligand binding (ligand: prazosin)
Format: cell membranes, Wistar, Liver, Membrane
REPORTED_CONDITIONS: Not Active = under 50% inhibition at 10 µM
MEASURE: IC50

Please review the following examples before continuing.
COMPOUND: CC(C(=O)O)c1cccc(Oc2ccccc2)c1 (stereo not given)
ENDPOINT_VALUE: Not Active
//
COMPOUND: Cn1c(=O)c2c(ncn2CC(O)CO)n(C)c1=O (stereo not given)
ENDPOINT_VALUE: Not Active
//
COMPOUND: CC(C)=CCC/C(C)=C/CO
ENDPOINT_VALUE: Not Active
//
COMPOUND: CC(C)c1cccc(C(C)C)c1O
ENDPOINT_VALUE: Not Active

Using the record for C[n+]1ccc(-c2cc[n+](C)cc2)cc1.[Cl-].[Cl-] [PARAQUAT DICHLORIDE] , report its IC50.
Not Active

Using the record for "O=C(O)CCNC(=O)c1ccccc1" , report its IC50.
Not Active

The values you see were collected from ChEMBL document CHEMBL1909046.
